System: blackgrass (Alopecurus myosuroides)
Experiment: Test C preemergence
Type: in vivo
Details: Alopecurus myosuroides, pre-emergence, 336 h; 62 g ai/ha, preemergence; scale 0 to 100; read-out: Plant response rating, Blackgrass
Please use true for pest or weed control at 62 g/ha under 50% and false for everything else, ties included.

The following compounds have reported results that may help.
1. N#Cc1cccc(Oc2ncc(Cl)cn2)c1Oc1ccc(Br)cn1; true
2. Clc1cnc(Oc2cccc(Br)c2Oc2ncc(Cl)cn2)nc1; false
3. N#Cc1cccc(Oc2ncc(Br)cn2)c1Oc1ncc(Cl)cn1; true

Here is another compound to look at.
pest or weed control at 62 g/ha strictly < 50% for this compound? Fc1ccc(F)c(Oc2ncc(Cl)cn2)c1Oc1ncc(Cl)cn1
false
